Molecular target: Mcl-1 protein (UniProtKB primary accession number: Q07820) (Homo sapiens, UniProt Q07820)
Sequence (Q07820 whole entry): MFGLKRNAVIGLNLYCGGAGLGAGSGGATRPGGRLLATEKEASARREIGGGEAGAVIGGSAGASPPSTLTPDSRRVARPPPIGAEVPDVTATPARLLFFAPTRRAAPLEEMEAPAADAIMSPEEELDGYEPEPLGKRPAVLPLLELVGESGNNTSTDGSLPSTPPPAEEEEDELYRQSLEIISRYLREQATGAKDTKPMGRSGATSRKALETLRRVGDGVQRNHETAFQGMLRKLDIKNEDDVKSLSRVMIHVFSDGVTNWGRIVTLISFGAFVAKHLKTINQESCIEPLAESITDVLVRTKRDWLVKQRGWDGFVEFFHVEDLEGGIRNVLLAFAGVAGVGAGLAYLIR
Assay: Inhibition of Mcl-1 by fluorescence polarisation, Method 1
Type: binding
Settings: fluorescence polarisation test; Method 2 values are underlined in the patent (underlining not visible here); read-out: IC50 (M) Mcl-1 FP
measurementName: IC50 (M)

molecule | experimentalTarget | IC50 [M]
Cc1c(-c2c(-c3ccc(F)cc3)sc3ncnc(OC(Cc4ccccc4OCc4ccnc(-c5ccnc(Cl)c5)n4)C(=O)O)c23)ccc(OCCN2CCN(C)CC2)c1Cl (stereo not drawn) [Example 119] | Mcl-1 protein (UniProtKB primary accession number: Q07820) (Homo sapiens, UniProt Q07820) | 4.8e-09
COc1cc(-c2sc3ncnc(OC(Cc4ccccc4OCC(F)(F)F)C(=O)O)c3c2-c2ccc(OCCN3CCN(C)CC3)c(Cl)c2C)ccc1F (stereo not drawn) [Example 380] | Mcl-1 protein (UniProtKB primary accession number: Q07820) (Homo sapiens, UniProt Q07820) | 1.1e-08
Cc1c(-c2c(-c3ccc(F)o3)sc3ncnc(OC(Cc4ccccc4OCc4ccccn4)C(=O)O)c23)ccc(OCCN2CCN(C)CC2)c1Cl (single isomer, unassigned) [Example 165] | Mcl-1 protein (UniProtKB primary accession number: Q07820) (Homo sapiens, UniProt Q07820) | 1.6e-06

P = CCc1sc2ncnc(OC(Cc3ccccc3)C(=O)O)c2c1-c1ccc(OCC(=O)N2CCCC2)c(Cl)c1C (stereo not drawn) [Example 391]
Q = COc1nccc(COc2ccccc2CC(Oc2ncnc3sc(-c4ccco4)c(-c4ccc(OCCN5CCN(C)CC5)c(Cl)c4C)c23)C(=O)O)n1 (stereo not drawn) [Example 255]
Returns the identifier with the smallest measured IC50 among P and Q . State the label of the item chosen.
Q

###

Biological target: Mcl-1 protein (UniProtKB primary accession number: Q07820) (Homo sapiens, UniProt Q07820)
Test: Inhibition of Mcl-1 by fluorescence polarisation, Method 1
Assay type: binding
Conditions: fluorescence polarisation test; Method 1, or Method 2 where the value is underlined (underlining not visible); read-out: IC50 (M) Mcl-1 FP
measurementName: IC50 (M)

compound | unitText | IC50
COCC(=O)OC(C)OC(=O)[C@@H](Cc1ccccc1OCc1ccnc(-c2ccccc2OC)n1)Oc1ncnc2sc(-c3ccc(F)cc3)c(-c3ccc(OCCN4CCN(C)CC4)c(Cl)c3C)c12 (some centres unmarked) | M | 2.7e-08

I = CCN(C)CCOc1ccc(-c2c(-c3ccc(F)cc3)sc3ncnc(OC(Cc4ccccc4OCc4ccnc(-c5ccccc5F)n4)C(=O)OCc4oc(=O)oc4C)c23)c(C)c1Cl (centres unmarked)
II = CCOC(=O)C(Cc1ccccc1OCc1ccnc(-c2ccccc2OCCOC)n1)Oc1ncnc2sc(-c3ccc(F)cc3)c(-c3ccc(OCCN4CCN(C)CC4)c(Cl)c3C)c12 (centres unmarked)
III = Cc1oc(=O)oc1COC(=O)C(Cc1ccccc1OCc1ccnn1C(C)(C)C)Oc1ncnc2sc(-c3cccc(F)c3F)c(-c3ccc(OCCN(C)C)c(Cl)c3C)c12 (centres unmarked)
IV = Cc1c(-c2c(-c3ccc(F)cc3)sc3ncnc(OC(Cc4ccccc4OCc4ccnn4C(C)(C)C)C(=O)OCOC(=O)C(C)(C)C)c23)ccc(OCCN(C)C)c1Cl (centres unmarked)
Rank items: key IC50, increasing. Response format: the labels, sorted as the prompt asks.
I, III, IV, II
(I: 1.98e-08 M, III: 3.82e-08 M, IV: 3.61e-07 M, II: 5.16e-07 M)

###

Test system: H929 multiple myeloma tumour line
Test: In vitro cytotoxicity, Microculture Tetrazolium Assay
Type: cell-based
Details: Homo sapiens, NCI-H929, 48 h, H929 cells, 48 hours exposure, MTT; read-out: IC50 (μM) MTT H929
measurementName: IC50 (µM)
Field format: number, assumed µM, no unit text.

compound | IC50 [µM]
COc1ccccc1-c1nccc(COc2ccccc2CC(Oc2ncnc3sc(-c4ccc(OCc5cccc(C)c5)cc4)c(-c4ccc(OCCN5CCN(C)CC5)c(Cl)c4C)c23)C(=O)O)n1 (stereo not drawn) | 0.017
CCCCCn1nccc1C(C)Oc1ccccc1CC(Oc1ncnc2sc(-c3ccc(F)cc3)c(-c3ccc(OCCN4CCN(C)CC4)c(Cl)c3C)c12)C(=O)O (single isomer, unassigned) | 0.418

Below: the item to evaluate.
Value (IC50, H929 multiple myeloma tumour line) for record CCN(CC)CCOc1ccc(-c2c(-c3ccc(F)cc3)sc3ncnc(OC(Cc4ccccc4OCc4ccnc(-c5ccccc5F)n4)C(=O)O)c23)c(C)c1Cl (stereo not drawn) = 0.111

###

Target: Mcl-1 protein (UniProtKB primary accession number: Q07820) (Homo sapiens, UniProt Q07820)
Experiment: Inhibition of Mcl-1 by fluorescence polarisation, Method 1
Assay type: binding
Conditions: fluorescence polarisation test; Method 2 values are underlined in the patent (underlining not visible here); read-out: IC50 (M) Mcl-1 FP
measurementName: IC50 (M)

Known results for compounds:
compound | IC50 (M)
COc1ccccc1CC(Oc1ncnc2sc(-c3ccco3)c(-c3ccc(OCCN4CCN(C(C)=O)CC4)c(Cl)c3C)c12)C(=O)O (stereo not drawn) | 8.8e-09
COc1ccccc1CC(Oc1ncnc2sc(-c3ccco3)c(-c3ccc(OCCC4CCCN4C)c(Cl)c3C)c12)C(=O)O (stereo not drawn) | 7.7e-09
CSc1nccc(COc2ccccc2CC(Oc2ncnc3sc(-c4ccc(F)cc4)c(-c4ccc(OCCN5CCN(C)CC5)c(Cl)c4C)c23)C(=O)O)n1 (stereo not drawn) | 1e-08
Cc1c(-c2c(-c3ccc(F)cc3)sc3ncnc(OC(Cc4ccccc4OCc4ccnc(OCc5ccncc5)n4)C(=O)O)c23)ccc(OCCN2CCN(C)CC2)c1Cl (stereo not drawn) | 4e-09

P = Cc1c(-c2c(-c3ccc(F)cc3)sc3ncnc(OC(Cc4ccccc4OCc4ccnn4CC4CCCCC4)C(=O)O)c23)ccc(OCCN2CCN(C)CC2)c1Cl (stereo not drawn)
Q = Cc1c(-c2c(-c3ccco3)sc3ncnc(OC(Cc4ccccc4OC(C)C)C(=O)O)c23)ccc(OCCN2CCN(C)CC2)c1Cl (stereo not drawn)
Of P and Q , which carries the smaller reported IC50 figure? Your choice should be expressed through its label.
P
(P: 4.5e-09 M, Q: 1e-08 M)

###

Tested on: H929 multiple myeloma tumour line
Experiment: In vitro cytotoxicity, Microculture Tetrazolium Assay
Type: cell-based
Settings: Homo sapiens, NCI-H929, 48 h, H929 cells, 48 hours exposure, MTT; read-out: IC50 (μM) MTT H929
measurementName: IC50 (µM)
Dear colleague, please return just the value in µM, with no unit written.

Here is how some compounds turned out for IC50.
compound | measurementName | unitText | readoutValue
Cc1c(-c2c(-c3ccco3)sc3ncnc(OC(Cc4ccccc4OCc4cncs4)C(=O)O)c23)ccc(OCCN2CCN(C)CC2)c1Cl (stereo not drawn) [Example 278] | IC50 | µM | 0.202
COc1ccccc1CC(Oc1ncnc2sc(-c3ccc(F)cc3)c(-c3ccc(OCCN4CCN(C)CC4)c(Br)c3C)c12)C(=O)O (stereo not drawn) [Example 646] | IC50 | µM | 0.298
COc1nccc(COc2ccccc2CC(Oc2ncnc3sc(-c4ccc(Cl)o4)c(-c4ccc(OCCN5CCN(C)CC5)c(Cl)c4C)c23)C(=O)O)n1 (stereo not drawn) [Example 369] | IC50 | µM | 0.009
COc1ccccc1CC(Oc1ncnc2sc(-c3ccco3)c(-c3ccc(OCCN4CCN(C(C)C)CC4)c(Cl)c3C)c12)C(=O)O (stereo not drawn) [Example 324] | IC50 | µM | 0.254
C#Cc1sc2ncnc(OC(Cc3ccccc3OCc3ccnn3CCCC)C(=O)O)c2c1-c1ccc(OCCN2CCN(C)CC2)c(Cl)c1C (stereo not drawn) [Example 611] | IC50 | µM | 0.23

// below: IC50 requested for another compound
For record Cc1c(-c2c(-c3cncs3)sc3ncnc(OC(Cc4ccccc4)C(=O)O)c23)ccc(OCCN2CCN(C)CC2)c1Cl (stereo not drawn) [Example 512] the listed IC50 is 7.42

###

Target: Mcl-1 protein (UniProtKB primary accession number: Q07820) (Homo sapiens, UniProt Q07820)
Experiment: Inhibition of Mcl-1 by fluorescence polarisation, Method 1
Type: binding
Settings: fluorescence polarisation; Method 1, or Method 2; read-out: IC50 (M) Mcl-1 FP
measurementName: IC50 (M)

compound | IC50 [M]
CCc1sc2ncnc(OC(Cc3ccccc3)C(=O)O)c2c1-c1cc(N)c(OCCN2CCN(C)CC2)c(Cl)c1C (stereo not shown) | 4.5e-08

a = CCc1sc2ncnc(OC(Cc3ccccc3)C(=O)O)c2c1-c1ccc(OCCc2ccncc2)c(Cl)c1C (stereo not shown)
b = CCc1sc2ncnc(OC(Cc3ccccc3)C(=O)O)c2c1-c1ccc(OCCO)c(Cl)c1C (stereo not shown)
c = CCc1sc2ncnc(O[C@@H](Cc3ccccc3OC)C(=O)O)c2c1-c1ccc(O)c(Cl)c1C (single isomer, unassigned) [Example 680]
Sort (3 compounds) by IC50: min first. Please respond with the labels ordered as the question requires.
a, b, c
